- tested target: Human Recombinant Matriptase 2 (Homo sapiens, UniProt Q8IU80)
- Construct: purchased Enzo Life Sciences (an in-house preparation was also used) ALX-201-752-1
- Sequence (Q8IU80 whole entry): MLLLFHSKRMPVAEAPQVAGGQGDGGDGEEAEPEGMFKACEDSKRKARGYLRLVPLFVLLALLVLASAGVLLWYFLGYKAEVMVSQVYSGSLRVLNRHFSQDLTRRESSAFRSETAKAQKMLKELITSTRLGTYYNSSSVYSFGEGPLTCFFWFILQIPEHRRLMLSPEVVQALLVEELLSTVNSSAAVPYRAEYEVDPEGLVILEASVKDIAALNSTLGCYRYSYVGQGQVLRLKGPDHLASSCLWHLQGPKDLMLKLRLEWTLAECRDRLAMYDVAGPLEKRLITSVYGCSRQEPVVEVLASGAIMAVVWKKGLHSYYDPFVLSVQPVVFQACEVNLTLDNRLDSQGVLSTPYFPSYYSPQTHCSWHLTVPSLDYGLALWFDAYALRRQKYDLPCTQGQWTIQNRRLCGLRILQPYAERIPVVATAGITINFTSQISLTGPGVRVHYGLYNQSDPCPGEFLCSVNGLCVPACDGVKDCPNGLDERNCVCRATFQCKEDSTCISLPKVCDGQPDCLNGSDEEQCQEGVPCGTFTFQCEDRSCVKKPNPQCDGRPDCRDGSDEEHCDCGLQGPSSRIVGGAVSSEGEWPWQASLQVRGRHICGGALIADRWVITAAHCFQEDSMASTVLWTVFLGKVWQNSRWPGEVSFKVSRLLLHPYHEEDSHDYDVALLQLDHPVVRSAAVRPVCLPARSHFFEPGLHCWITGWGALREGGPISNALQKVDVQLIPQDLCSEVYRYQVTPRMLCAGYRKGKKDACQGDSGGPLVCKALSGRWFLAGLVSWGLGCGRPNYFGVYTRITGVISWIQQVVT
- test: Matriptase 2 fluorescence based inhibition assay, Method B (50 mM TRIS pH 7.5, 150 mM NaCl, 0.01% gelatin)
- Assay type: biochemical
- settings: 1 uM compound; Assay Used = B; read-out: Mar-2 % inhibition at 1 uM
The molecules listed here are annotated with their inhibition at 1 µM.
quantity name: inhibition at 1 µM

N=C(N)c1cc(F)c2cc(C(=O)O)n(Cc3cc(Oc4ncccn4)cc4ccccc34)c2c1: 75 to 100%
N=C(N)c1ccc2cc(C(=O)N[C@H]3CC[C@H](N)CC3)n(Cc3cccc(Cl)c3Cl)c2c1: 25 to 50%
N=C(N)c1ccc2cc(C(=O)N[C@H]3CC[C@H](N)CC3)n(Cc3ccc(C(=O)O)c4ccccc34)c2c1: 25 to 50%
CC(C)(C)OC(=O)NC(=N)c1ccc2cc(C(=O)Nc3ccc(NC(=O)c4ccccn4)cc3)n(Cc3cccc4ccccc34)c2c1: 0 to 25%
CCOC(=O)c1cc2ccc(/C(N)=N/C#N)cc2n1Cc1cc(Oc2ncccn2)cc2ccccc12: 0 to 25%
CC(C)(C)OC(=O)N[C@H]1CC[C@H](NC(=O)c2cc3ccc(C(=N)N)cc3n2-c2ccc3ccccc3c2)CC1: 0 to 25%
Cc1ccnc(Oc2cc(Cn3c(C(=O)O)cc4ccc(C(=N)N)cc43)c3ccccc3c2)n1: 25 to 50%
COC(=O)NC(=N)c1ccc2cc(C(=O)O)n(Cc3cc(Oc4ncccn4)cc4ccccc34)c2c1: 25 to 50%
CCNC(=N)c1ccc2cc(C(=O)N[C@H]3CC[C@H](N)CC3)n(Cc3ccc4ccccc4c3)c2c1: 25 to 50%
CCOC(=O)N1CCC(NC(=O)c2cc3ccc(C(=N)NC(=O)OC(C)(C)C)cc3n2Cc2cccc3ccccc23)CC1: 0 to 25%
N=C(N)c1ccc2cc(C(=O)N[C@H]3CC[C@H](N)CC3)n(Cc3ccnc4ccccc34)c2c1: 50 to 75%
CC(C)(C)OC(=O)NC(=N)c1ccc2cc(C(=O)NCC3CCN(C(=O)OC(C)(C)C)CC3)n(Cc3cccc4ccccc34)c2c1: 25 to 50%
CCOC(=O)c1cc2ccc(C(=N)N)cc2n1Cc1cc(Oc2ccsc2)cc2ccccc12: 0 to 25%
CS(=O)(=O)Nc1cc(Cn2c(C(=O)O)cc3ccc(C(=N)N)cc32)c2ccccc2c1: 75 to 100%
N=C(N)c1ccc2c(C(=O)N[C@H]3CC[C@H](N)CC3)cn(Cc3cccc4ccccc34)c2c1: 0 to 25%

----------
- tested target: Human Recombinant Matriptase 2 (Homo sapiens)
- Construct: purchased Enzo Life Sciences (an in-house preparation was also used) ALX-201-752-1
- test: Matriptase 2 fluorescence based inhibition assay, Method B (50 mM TRIS pH 7.5, 150 mM NaCl, 0.01% gelatin)
- Assay type: biochemical
- settings: 1 uM compound; Assay Used = B (Method B); read-out: Mar-2 % inhibition at 1 uM
Listing of entries alongside the reported inhibition at 1 µM.
quantity name: inhibition at 1 µM

COc1ccc(Cn2c(C(=O)N[C@H]3CC[C@H](N)CC3)cc3ccc(C(=N)N)cc32)c2ccccc12: 75 to 100%
CC(C)OC(=O)NC(=N)c1ccc2cc(C(=O)O)n(Cc3cccc4ccccc34)c2c1: 0 to 25%
CC(C)COC(=O)NC(=N)c1ccc2cc(C(=O)O)n(Cc3cccc4ccccc34)c2n1: 25 to 50%
N=C(N)c1ccc2cc(C(=O)O)n(Cc3cc(Oc4cccnn4)cc4ccccc34)c2c1: 25 to 50%
N=C(N)c1ccc2cc(C(=O)O)n(-c3cc(CO)c4ccccc4c3)c2c1: 50 to 75%
N=C(N)c1ccc2cc(C(=O)N[C@H]3CC[C@H](N)CC3)n(Cc3cc(N4CCOCC4=O)cc4ccccc34)c2c1: 25 to 50%
CCn1c(C(=O)O)c(Cc2cccc3ccccc23)c2cc(C(=N)N)ccc21: 50 to 75%
CS(=O)(=O)N[C@H]1CC[C@H](NC(=O)c2cc3ccc(C(=N)N)cc3n2Cc2cccc3ccccc23)CC1: 50 to 75%
CCOC(=O)c1cc2ccc(C(N)=NO)cc2n1Cc1cc(Oc2ccccc2)cc2ccccc12: 0 to 25%
N=C(N)c1ccc2cc(C(=O)O)n(Cc3cc(Oc4ccccc4)cc4ccccc34)c2n1: 25 to 50%
N=C(N)c1cc2c(cn1)cc(C(=O)NC1CCC(N)CC1)n2Cc1cccc2ccccc12 (stereo not shown): 75 to 100%
Cc1c(C(=O)O)n(Cc2cccc3ccccc23)c2cc(C(=N)N)ccc12: 50 to 75%
N=C(N)c1ccc2cc(C(=O)N[C@H]3CC[C@H](N)CC3)n(Cc3cc(Oc4ccccc4)cc4ccccc34)c2c1: 75 to 100%
N=C(N)c1ccc2cc(N3CCOC3=O)n(Cc3cccc4ccccc34)c2c1: 25 to 50%
N=C(N)c1ccc2cc(C(=O)O)n(Cc3c(Cl)c(Sc4ccccc4)cc4ccccc34)c2c1: 0 to 25%
N=C(N)c1ccc2cc(C(=O)O)n(Cc3csc4ccccc34)c2c1: 50 to 75%
